- test.system: human NK3 receptor (Homo sapiens, UniProt P29371)
- Construct: expressed in transfected cells
- Sequence (P29371 whole entry): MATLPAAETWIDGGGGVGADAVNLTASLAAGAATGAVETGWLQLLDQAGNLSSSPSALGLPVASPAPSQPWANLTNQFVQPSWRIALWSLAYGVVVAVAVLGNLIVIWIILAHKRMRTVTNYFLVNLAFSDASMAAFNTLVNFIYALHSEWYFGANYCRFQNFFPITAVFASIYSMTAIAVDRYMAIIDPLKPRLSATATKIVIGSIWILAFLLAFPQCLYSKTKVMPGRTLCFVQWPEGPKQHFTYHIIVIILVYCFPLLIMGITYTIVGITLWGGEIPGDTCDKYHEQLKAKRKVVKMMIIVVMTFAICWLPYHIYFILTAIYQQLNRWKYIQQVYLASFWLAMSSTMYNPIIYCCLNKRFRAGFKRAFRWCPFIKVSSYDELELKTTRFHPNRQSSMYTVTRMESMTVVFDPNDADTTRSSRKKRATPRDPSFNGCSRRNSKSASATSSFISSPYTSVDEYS
- experiment.summary: NK3 receptor binding assay (SPA-based competition binding, 125I-NKB)
- test.settings: read-out: Affinity (Ki/nM)
One threshold, 30 nM, splits the recorded Ki values: lower ones are YES, equal or higher ones are NO.

{"smiles.text": "CC[C@H](NC(=O)c1c(C)n(Nc2ccccc2)c(=O)c2ccccc12)c1ccccc1", "group.label": "NO"}
{"smiles.text": "CCn1ccnc1Cn1c(C)c(C(=O)N[C@H](c2cccc(F)c2)C2CCC2)c2cccc(F)c2c1=O", "group.label": "NO"}
{"smiles.text": "Cc1cc(Cn2c(C)c(C(=O)N[C@H](c3cccc(F)c3)C3CCC3)c3cccc(F)c3c2=O)[nH]n1", "group.label": "YES"}
{"smiles.text": "Cc1cc(Cn2c(C)c(C(=O)N[C@H](c3cccc(F)c3)C3CCC3)c3cccc(F)c3c2=O)no1", "group.label": "NO"}

Consider the additional molecule presented here.
Problem: Does the reported Ki of Cc1nnc(Cn2c(C)c(C(=O)N[C@H](c3cccc(F)c3)C3CCC3)c3cccc(F)c3c2=O)[nH]1 stay below 30 nM?
Solution: NO

* * *

- test.system: human NK3 receptor (Homo sapiens)
- Construct: expressed in transfected cells
- experiment.summary: NK3 receptor binding assay (SPA-based competition binding, 125I-NKB)
- test.settings: read-out: Affinity (Ki/nM)
assay.endpoint: Ki (nM)
Give just the number in nM; leave the unit off.

Some solved entries appear below for comparison.
{"smiles.text": "Cc1c(C(=O)N[C@H](c2cccc(F)c2)C2CC2)c2cccc(F)c2c(=O)n1Cc1cccnc1", "unit.symbol": "nM", "reading": 350}
{"smiles.text": "Cc1nc(Cn2c(C)c(C(=O)N[C@H](c3cccc(F)c3)C3CCC3)c3cccc(F)c3c2=O)cs1", "unit.symbol": "nM", "reading": 95}

Problem: Please report Ki for the following compound: Cc1c(C(=O)N[C@H](c2cccc(F)c2)C2CCC2)c2cccc(F)c2c(=O)n1Cc1cocn1
Solution: 12

Problem: Please report Ki for the following compound: Cc1c(C(=O)N[C@H](c2cccc(F)c2)C2CC2)c2cccc(F)c2c(=O)n1Cc1ccsc1
Solution: 7.8

Numbers sourced from patent US8415373B2.
